# systemTested: TbINO1 (Trypanosoma brucei brucei)
# Sequence (Q5QQ46 whole entry): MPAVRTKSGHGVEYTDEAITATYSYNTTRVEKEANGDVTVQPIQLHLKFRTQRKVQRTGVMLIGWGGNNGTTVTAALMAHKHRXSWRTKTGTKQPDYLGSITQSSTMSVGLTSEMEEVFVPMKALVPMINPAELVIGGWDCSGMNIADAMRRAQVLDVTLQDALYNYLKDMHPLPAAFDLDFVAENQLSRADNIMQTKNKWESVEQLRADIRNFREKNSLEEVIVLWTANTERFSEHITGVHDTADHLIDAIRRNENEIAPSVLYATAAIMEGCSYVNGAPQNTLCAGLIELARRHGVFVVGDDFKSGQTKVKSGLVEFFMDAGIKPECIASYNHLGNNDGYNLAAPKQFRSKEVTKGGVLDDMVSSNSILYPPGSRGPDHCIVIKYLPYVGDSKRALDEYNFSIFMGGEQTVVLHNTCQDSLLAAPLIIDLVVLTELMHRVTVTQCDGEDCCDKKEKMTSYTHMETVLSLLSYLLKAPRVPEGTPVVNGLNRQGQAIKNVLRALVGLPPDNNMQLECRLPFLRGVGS
# runDescription: biochemical
# Type: binding
# cond: read-out: Tb Ino1 Tm Shift [˚C]
Where a name gives a salt, the structure may show the parent alone.
With a cut-off of 0.3 °C, any ΔTm at 1000 µM strictly below it is called true; any ΔTm at 1000 µM meeting it or above is called false.

Look over these answered cases.
O=C(O)Cc1cccnc1 [compound 381, pyridin‐3‐ylacetic acid hydrochloride]    false
Fc1ccc(-n2cccc2)cc1 [compound 276, 1‐(4‐fluorophenyl)‐1H‐pyrrole]    false
Cc1nccc(-c2cccc(N)c2)n1 [compound 493, 3‐(2‐methylpyrimidin‐4‐yl)aniline]    true
c1cncc(Cn2cccc2)c1 [compound 248, 3‐(1H‐pyrrol‐1‐ylmethyl)pyridine]    true
Cc1[nH]c2ccc(C(=O)O)cc2c1C [compound 537, 2,3‐dimethyl‐1H‐indole‐5‐carboxylic acid]    false

Please let me know if CNCc1ccc(-c2ccccn2)cc1 [compound 607, N‐methyl‐N‐(4‐pyridin‐2‐ylbenzyl)amine] shows ΔTm at 1000 µM below 0.3 °C. true

Please let me know if Nc1ccc2ncsc2c1 [compound 191, 1,3‐benzothiazol‐6‐amine] shows ΔTm at 1000 µM below 0.3 °C. false

Please let me know if Nc1cc(-c2cccs2)[nH]n1 [compound 313, 5‐thien‐2‐yl‐1H‐pyrazol‐3‐amine] shows ΔTm at 1000 µM below 0.3 °C. false
